The values you see were collected from paper PMC12156185.

Test system: Candida tropicalis (BNCC 340288)
Format: cell-based
CONDITION PARAMETERS: BNCC 340288, 24 h
Where a SMILES comes first, the peptide text is derived from it.
VALUE KIND: MIC against C. tropicalis (µM)
Numeric only. Scale: µM

What value of MIC against C. tropicalis has been reported for the following molecule? CC[C@H](C)[C@@H]1NC(=O)[C@H](CCCCN)NC(=O)[C@H](CC(C)C)NC(=O)[C@H](CCCCN)NC(=O)[C@H](CS)NC(=O)[C@H](Cc2ccccc2)NC1=O [Cy-f3] (cyclo(CKLKIF))
32

What value of MIC against C. tropicalis has been reported for the following molecule? CC[C@H](C)[C@@H]1NC(=O)[C@H](CCCNC(=N)N)NC(=O)[C@H](CS)NC(=O)[C@H](CCCNC(=N)N)NC(=O)[C@H](C(C)C)NC(=O)[C@H](C(C)C)NC1=O [Cy-f8] (cyclo(CRIVVR))
16

What value of MIC against C. tropicalis has been reported for the following molecule? CC[C@H](C)[C@@H]1NC(=O)[C@H](C(C)C)NC(=O)[C@H](CCCNC(=N)N)NC(=O)[C@H](CS)NC(=O)[C@H](CCCNC(=N)N)NC(=O)[C@H]([C@@H](C)CC)NC1=O [Cy-f10] (cyclo(CRVIIR))
128

What value of MIC against C. tropicalis has been reported for the following molecule? CC(C)C[C@@H]1NC(=O)[C@H](CCCCN)NC(=O)[C@H](CS)NC(=O)[C@H](Cc2ccccc2)NC(=O)[C@H](Cc2c[nH]c3ccccc23)NC(=O)[C@H](CCCNC(=N)N)NC1=O [Cy-f4] (cyclo(CKLRWF))
64

What value of MIC against C. tropicalis has been reported for the following molecule? CC[C@H](C)[C@@H]1NC(=O)[C@H](CCCCN)NC(=O)[C@H](CC(C)C)NC(=O)[C@H](CC(C)C)NC(=O)[C@H](CS)NC(=O)[C@H](Cc2ccccc2)NC1=O [Cy-f1] (cyclo(CLLKIF))
64

What value of MIC against C. tropicalis has been reported for the following molecule? CC[C@H](C)[C@@H]1NC(=O)[C@H]([C@@H](C)CC)NC(=O)[C@@H]2CCCN2C(=O)[C@H](CCCCN)NC(=O)[C@H](CCCNC(=N)N)NC(=O)[C@H](CS)NC1=O [Cy-f5] (cyclo(CRKPII))
64

What value of MIC against C. tropicalis has been reported for the following molecule? CC[C@H](C)[C@@H]1NC(=O)[C@H](CS)NC(=O)[C@H]([C@@H](C)CC)NC(=O)[C@H]([C@@H](C)CC)NC(=O)[C@@H]2CCCN2C(=O)[C@H](CCCNC(=N)N)NC1=O [Cy-f11] (cyclo(CIRPII))
64

What value of MIC against C. tropicalis has been reported for the following molecule? CC[C@H](C)[C@@H]1NC(=O)[C@H](CCCCN)NC(=O)[C@H](CC(C)C)NC(=O)[C@H](CCCNC(=N)N)NC(=O)[C@H](CS)NC(=O)[C@H](Cc2ccccc2)NC1=O [Cy-f2] (cyclo(CRLKIF))
16

What value of MIC against C. tropicalis has been reported for the following molecule? CC(C)C[C@@H]1NC(=O)[C@H](C(C)C)NC(=O)[C@@H]2CCCN2C(=O)[C@H](CCCCN)NC(=O)[C@H](CCCNC(=N)N)NC(=O)[C@H](CS)NC1=O [Cy-f7] (cyclo(CRKPVL))
32

====

System: Acinetobacter baumannii (BNCC 337173)
Type: cell-based
Where a SMILES comes first, the peptide text is derived from it.
Below, each entry is listed alongside its reported MIC against A. baumannii.

Record excerpt, results attached:
* CC[C@H](C)[C@@H]1NC(=O)[C@@H]2CCCN2C(=O)[C@H](CCCCN)NC(=O)[C@H](CCCNC(=N)N)NC(=O)[C@H](CS)NC(=O)[C@H](C(C)C)NC1=O [Cy-f6] (cyclo(CRKPIV)) | > 200 µM
* CC(C)C[C@@H]1NC(=O)[C@H](CCCCN)NC(=O)[C@H](CS)NC(=O)[C@H](Cc2ccccc2)NC(=O)[C@H](Cc2c[nH]c3ccccc23)NC(=O)[C@H](CCCNC(=N)N)NC1=O [Cy-f4] (cyclo(CKLRWF)) | 64 µM

Continue with the next compound.
What value of MIC against A. baumannii has been reported for the following compound? CC[C@H](C)[C@@H]1NC(=O)[C@H](CS)NC(=O)[C@H](CC(C)C)NC(=O)[C@H]([C@@H](C)CC)NC(=O)[C@@H]2CCCN2C(=O)[C@H](CCCNC(=N)N)NC1=O [Cy-f9] (cyclo(CIRPIL))
> 200 µM

====

Below, each entry is listed alongside its reported MIC against E. coli.
Test system: Escherichia coli (ATCC 25922)
Format: cell-based
Where a SMILES comes first, the peptide text is derived from it.
Numeric only. Scale: µM

What value of MIC against E. coli has been reported for the following molecule? CC[C@H](C)[C@@H]1NC(=O)[C@H](CCCCN)NC(=O)[C@H](CC(C)C)NC(=O)[C@H](CCCCN)NC(=O)[C@H](CS)NC(=O)[C@H](Cc2ccccc2)NC1=O [Cy-f3] (cyclo(CKLKIF))
64

What value of MIC against E. coli has been reported for the following molecule? CC[C@H](C)[C@@H]1NC(=O)[C@H](CCCCN)NC(=O)[C@H](CC(C)C)NC(=O)[C@H](CCCNC(=N)N)NC(=O)[C@H](CS)NC(=O)[C@H](Cc2ccccc2)NC1=O [Cy-f2] (cyclo(CRLKIF))
16

What value of MIC against E. coli has been reported for the following molecule? CC[C@H](C)[C@@H]1NC(=O)[C@H]([C@@H](C)CC)NC(=O)[C@@H]2CCCN2C(=O)[C@H](CCCCN)NC(=O)[C@H](CCCNC(=N)N)NC(=O)[C@H](CS)NC1=O [Cy-f5] (cyclo(CRKPII))
128

What value of MIC against E. coli has been reported for the following molecule? CC[C@H](C)[C@@H]1NC(=O)[C@H](CCCCN)NC(=O)[C@H](CC(C)C)NC(=O)[C@H](CC(C)C)NC(=O)[C@H](CS)NC(=O)[C@H](Cc2ccccc2)NC1=O [Cy-f1] (cyclo(CLLKIF))
64

What value of MIC against E. coli has been reported for the following molecule? CC[C@H](C)[C@@H]1NC(=O)[C@H](CCCNC(=N)N)NC(=O)[C@H](CS)NC(=O)[C@H](CCCNC(=N)N)NC(=O)[C@H](C(C)C)NC(=O)[C@H](C(C)C)NC1=O [Cy-f8] (cyclo(CRIVVR))
16

What value of MIC against E. coli has been reported for the following molecule? CC(C)C[C@@H]1NC(=O)[C@H](C(C)C)NC(=O)[C@@H]2CCCN2C(=O)[C@H](CCCCN)NC(=O)[C@H](CCCNC(=N)N)NC(=O)[C@H](CS)NC1=O [Cy-f7] (cyclo(CRKPVL))
128

====

Below, each entry is listed alongside its reported MIC against A. baumannii.
System: Acinetobacter baumannii (BNCC 337173)
Assay type: cell-based
Where a SMILES comes first, the peptide text is derived from it.
Numeric only. Scale: µM

• CC[C@H](C)[C@@H]1NC(=O)[C@H](CCCCN)NC(=O)[C@H](CC(C)C)NC(=O)[C@H](CCCCN)NC(=O)[C@H](CS)NC(=O)[C@H](Cc2ccccc2)NC1=O [Cy-f3] (cyclo(CKLKIF)) = 128

Lookup: MIC against A. baumannii / Acinetobacter baumannii (BNCC 337173) / CC[C@H](C)[C@@H]1NC(=O)[C@H](CCCCN)NC(=O)[C@H](CC(C)C)NC(=O)[C@H](CC(C)C)NC(=O)[C@H](CS)NC(=O)[C@H](Cc2ccccc2)NC1=O [Cy-f1] (cyclo(CLLKIF))
32

====

System: Escherichia coli (ATCC 25922)
Type: cell-based
Where a SMILES comes first, the peptide text is derived from it.
Below, each entry is listed alongside its reported MIC against E. coli.

Record excerpt, results attached:
• CC[C@H](C)[C@@H]1NC(=O)[C@H](CS)NC(=O)[C@H](CC(C)C)NC(=O)[C@H]([C@@H](C)CC)NC(=O)[C@@H]2CCCN2C(=O)[C@H](CCCNC(=N)N)NC1=O [Cy-f9] (cyclo(CIRPIL)) = > 200 µM
• CC[C@H](C)[C@@H]1NC(=O)[C@@H]2CCCN2C(=O)[C@H](CCCCN)NC(=O)[C@H](CCCNC(=N)N)NC(=O)[C@H](CS)NC(=O)[C@H](C(C)C)NC1=O [Cy-f6] (cyclo(CRKPIV)) = > 200 µM

What value of MIC against E. coli has been reported for the following compound? CC[C@H](C)[C@@H]1NC(=O)[C@H](CS)NC(=O)[C@H]([C@@H](C)CC)NC(=O)[C@H]([C@@H](C)CC)NC(=O)[C@@H]2CCCN2C(=O)[C@H](CCCNC(=N)N)NC1=O [Cy-f11] (cyclo(CIRPII))
> 200 µM
